# System: HepG2
# METHOD: cytotoxicity call (relative viability < 0.9)
# MEASUREMENT SETUP: 10 µM
The whole screen tested about 39,000 compounds, of which about 3,300 (8.5%) were called active. The sample as a whole holds a higher share of actives than the screen did.
Outcomes: active, inactive

INSERT INTO assay_data (smiles_data, group) VALUES
  ('C[C@@H]1CCCCO[C@H](CN(C)Cc2ccc3c(c2)OCO3)[C@@H](C)CN([C@H](C)CO)C(=O)c2cc(NC(=O)Cc3ccccc3)ccc2O1', 'inactive'),
  ('C[C@@H]1CN([C@@H](C)CO)C(=O)c2cccc(NC(=O)c3ccncc3)c2O[C@@H]1CN(C)Cc1ccc2c(c1)OCO2', 'inactive'),
  ('CCS(=O)(=O)N1C[C@]2(CN(C2)S(=O)(=O)c2cn(cn2)C)c2c(n(c3cc(ccc23)OC)C)[C@@H]1CO', 'inactive'),
  ('C[C@@H]1CN([C@@H](C)CO)C(=O)c2cc(-c3ccc(C(=O)N(C)C)cc3)cnc2O[C@@H]1CN(C)C(=O)c1cccnc1', 'inactive'),
  ('O=C1CCNCCN1', 'inactive'),
  ('COCCCNC(=O)C[C@H]1SC(=N)NC1=O', 'inactive'),
  ('C[C@H]1CCCCO[C@H](CN(C)Cc2ccc(C(F)(F)F)cc2)[C@@H](C)CN([C@@H](C)CO)C(=O)c2cc(NC(=O)CCC(F)(F)F)ccc2O1', 'active'),
  ('C[C@@H]1CCCCO[C@H](CN(C)C(=O)c2ccccc2)[C@H](C)CN([C@@H](C)CO)C(=O)c2cc(NS(=O)(=O)c3ccc(F)cc3)ccc2O1', 'inactive'),
  ('C[C@H]1CN([C@@H](C)CO)C(=O)c2cc(NC(=O)Cn3cnnn3)ccc2O[C@H]1CN(C)CC1CCCCC1', 'inactive'),
  ('C[C@@H]1CN([C@@H](C)CO)C(=O)Cc2cc(NC(=O)C3CCCCC3)ccc2O[C@@H]1CN(C)S(C)(=O)=O', 'inactive'),
  ('COc1ccc(S(=O)(=O)N[C@@H]2CC[C@@H](CC(=O)N3CCN(c4ccccc4)CC3)O[C@@H]2CO)cc1', 'inactive'),
  ('Cc1ccc(S[C@]2(C(=O)NCCCN(C)C)CC(=O)N(C3Cc4ccccc4C3)[C@@H]2c2ccc(CO)cc2I)cc1', 'inactive'),
  ('C[C@@H]1CN([C@H](C)CO)C(=O)c2cccc(NC(=O)Nc3ccc4c(c3)OCO4)c2O[C@H]1CN(C)C(=O)Nc1ccc(C(F)(F)F)cc1', 'inactive'),
  ('O=C(Nc1ccc(C(F)(F)F)cc1)Nc1ccc2c(c1)[C@@H]1C[C@H](CC(=O)N3CCc4ccccc4C3)O[C@@H](CO)[C@@H]1O2', 'inactive'),
  ('Cn1c(=O)[nH]c(=O)c2[nH]cnc21', 'inactive'),
  ('O=C(C[C@H]1C=C[C@H](NC(=O)Cc2ccccn2)[C@@H](CO)O1)NCCc1ccncc1', 'inactive'),
  ('COCC#Cc1ccc2c(c1)O[C@H](CN(C)C(=O)Nc1ccccc1F)[C@H](C)CN([C@@H](C)CO)S2(=O)=O', 'inactive'),
  ('O=C(Nc1ccc(C(F)(F)F)cc1)Nc1ccc2c(c1)[C@H]1C[C@@H](CC(=O)N3CCc4ccccc4C3)O[C@@H](CO)[C@H]1O2', 'inactive'),
  ('O=C(Nc1ccc(C(F)(F)F)cc1)Nc1ccc2c(c1)[C@H]1C[C@H](CC(=O)N3CCc4ccccc4C3)O[C@@H](CO)[C@H]1O2', 'inactive'),
  ('C[C@@H]1CN([C@@H](C)CO)C(=O)c2cc(-c3ccncc3)cnc2O[C@@H]1CN(C)S(=O)(=O)c1ccc(F)cc1', 'inactive'),
  ('C[C@@H]1CN([C@H](C)CO)C(=O)c2cc(NC(=O)Cn3cnnn3)ccc2O[C@@H]1CN(C)Cc1ccc(C(=O)O)cc1', 'inactive'),
  ('CN(C)c1nc2c([nH]1)c(=O)[nH]c(=O)n2C', 'inactive'),
  ('C[C@H]1CN([C@@H](C)CO)C(=O)c2cccc(NS(=O)(=O)c3cccs3)c2O[C@@H]1CN(C)CC1CC1', 'inactive'),
  ('COc1ccc(S(=O)(=O)Nc2cccc3c2O[C@@H](CN(C)C(=O)NC(C)C)[C@H](C)CN([C@@H](C)CO)C3=O)cc1', 'inactive'),
  ('C[C@H]1CN([C@@H](C)CO)C(=O)c2cc(Br)cnc2O[C@@H]1CN(C)S(=O)(=O)c1cn(C)cn1', 'inactive'),
  ('O=C(Nc1ccc(C(F)(F)F)cc1)Nc1ccc2c(c1)[C@@H]1C[C@H](CC(=O)N3CCc4ccccc4C3)O[C@H](CO)[C@@H]1O2', 'inactive'),
  ('CN1CCN(C(=O)C[C@H]2C=C[C@@H](NC(=O)Cc3ccccn3)[C@@H](CO)O2)CC1', 'inactive'),
  ('Cc1ccc(S(=O)(=O)Nc2cccc3c2O[C@H](CN(C)S(C)(=O)=O)[C@@H](C)CN([C@H](C)CO)C3=O)cc1', 'inactive'),
  ('C[C@H]1CN([C@@H](C)CO)C(=O)c2cccc(NS(C)(=O)=O)c2O[C@@H]1CN(C)C(=O)Nc1ccccc1', 'inactive'),
  ('C[C@H](CO)N1C[C@H](C)[C@@H](CN(C)C(=O)Nc2ccc3c(c2)OCO3)Oc2c(NC(=O)C3CCOCC3)cccc2C1=O', 'inactive'),
  ('CN(C)Cc1nc2c([nH]1)c(=O)[nH]c(=O)n2C', 'active');

All values here come from the antibiotic and cytotoxicity screens of Wong et al. (2023).
